For each of the compounds below, state its MIC.
# Tested on: Staphylococcus aureus
# procedure.text: Antibacterial activity against methicillin-resistant Staphylococcus aureus 209P JC1
# Format: functional
Give bare numbers, in µg/mL.

[[record]]
test_smiles = "CCN(CC)C(=O)c1ccc(C[n+]2cn3cc(C4=C(C(=O)[O-])N5C(=O)[C@H]([C@@H](C)O)[C@H]5[C@H]4C)sc3c2SC)cc1"
experimental_system = "Staphylococcus aureus"
units_label = "µg/mL"
assay_result = 0.013


// next entry
The reported value for CSc1c2sc(C3=C(C(=O)[O-])N4C(=O)[C@H]([C@@H](C)O)[C@H]4[C@H]3C)cn2c[n+]1Cc1ccc(C(=O)O)cc1 in terms of MIC is 0.025

---

# Test system: Staphylococcus aureus
# procedure.text: Antibacterial activity against methicillin-resistant Staphylococcus aureus 209P JC1
# Type: functional
For each of the compounds below, state its MIC.

[[record]]
test_smiles = "CSc1c2sc(C3=C(C(=O)O)N4C(=O)[C@H]([C@@H](C)O)[C@H]4[C@H]3C)cn2c[n+]1Cc1ccccc1C[N+]1(C)CCOCC1.[Br-].[Br-]"
experimental_system = "Staphylococcus aureus"
quantity_name = "MIC"
assay_result = "< 6 ng/mL"


Quick batch: MIC for everything below.
1. CN[C@H](CC(C)C)C(=O)N[C@H]1C(=O)N[C@@H](CC(N)=O)C(=O)N[C@H]2C(=O)N[C@H]3C(=O)N[C@H](C(=O)N[C@H](C(=O)O)c4cc(O)cc(O)c4-c4cc3ccc4O)[C@H](O)c3ccc(c(Cl)c3)Oc3cc2cc(c3O[C@@H]2O[C@H](CO)[C@@H](O)[C@H](O)[C@H]2O[C@H]2C[C@](C)(N)[C@H](O)[C@H](C)O2)Oc2ccc(cc2Cl)[C@H]1O
2. CSc1c2sc(C3=C(C(=O)O)N4C(=O)[C@H]([C@@H](C)O)[C@H]4[C@H]3C)cn2c[n+]1Cc1ccc(C[n+]2ccccc2)cc1.[Br-].[Br-]
3. COc1cccc(C[n+]2cn3cc(C4=C(C(=O)[O-])N5C(=O)[C@H]([C@@H](C)O)[C@H]5[C@H]4C)sc3c2SC)c1

1: 780 ng/mL; 2: < 6 ng/mL; 3: < 6 ng/mL

The reported value for CSc1c2sc(C3=C(C(=O)[O-])N4C(=O)[C@H]([C@@H](C)O)[C@H]4[C@H]3C)cn2c[n+]1Cc1ccccc1 in terms of MIC is < 6 ng/mL

All values here come from ChEMBL document CHEMBL1154519.
